System: L6
Assay: Inhibition of cholesterol synthesis in rat L6 myocyte
Format: functional, cell-based
We begin with a simple list: items and their reported pIC50.
Schema: pIC50 number; meaning minus log10 of the concentration expressed in molar units.

# count of solved cases: 5
> print(dat)
                                   molecule  value.observed
1  CC(C)c1c(S(=O)(=O)Nc2ccccc2)c(-c2ccccc2)c(-c2ccc(F)cc2)n1CC[C@@H](O)C[C@@H](O)CC(=O)[O-].[Na+]            7.70
2  CC(C)c1c(S(=O)(=O)N2CCN(C)CC2)c(-c2ccccc2)c(-c2ccc(F)cc2)n1CC[C@@H](O)C[C@@H](O)CC(=O)[O-].[Na+]            4.98
3  CCC(C)(C)C(=O)O[C@H]1C[C@@H](C)C=C2C=C[C@H](C)[C@H](CC[C@@H]3C[C@@H](O)CC(=O)O3)[C@H]21 [SIMVASTATIN]            6.82
4  CC(C)c1c(S(=O)(=O)N2CCCCC2)c(-c2ccccc2)c(-c2ccc(F)cc2)n1CC[C@@H](O)C[C@@H](O)CC(=O)[O-].[Na+]            5.15
5  CC(C)c1c(S(=O)(=O)N(C)Cc2ccccc2)c(-c2ccccc2)c(-c2ccc(F)cc2)n1CC[C@@H](O)C[C@@H](O)CC(=O)[O-].[Na+]            6.85

Please turn your attention to the following entry.
Observed pIC50 on L6 for CC(C)c1c(S(=O)(=O)N2CCC2)c(-c2ccccc2)c(-c2ccc(F)cc2)n1CC[C@@H](O)C[C@@H](O)CC(=O)[O-].[Na+] , please.
5.67
